Biological target: T1, recombinant human DLL3 (human, UniProt Q9NYJ7 27-492)
T1 sequence: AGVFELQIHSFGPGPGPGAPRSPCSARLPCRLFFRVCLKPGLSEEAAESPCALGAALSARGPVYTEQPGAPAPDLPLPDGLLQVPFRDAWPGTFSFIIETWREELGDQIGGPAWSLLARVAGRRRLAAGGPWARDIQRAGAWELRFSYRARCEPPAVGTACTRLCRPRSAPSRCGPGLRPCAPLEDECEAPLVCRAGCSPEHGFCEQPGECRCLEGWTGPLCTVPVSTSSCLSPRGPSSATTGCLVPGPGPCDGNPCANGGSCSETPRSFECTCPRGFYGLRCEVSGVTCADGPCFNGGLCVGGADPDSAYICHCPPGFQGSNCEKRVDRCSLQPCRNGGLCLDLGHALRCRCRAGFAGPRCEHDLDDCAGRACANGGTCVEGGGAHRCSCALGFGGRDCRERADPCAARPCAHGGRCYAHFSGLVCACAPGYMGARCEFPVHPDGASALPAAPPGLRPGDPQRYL
Experiment: Octet binning on SA sensor; Antibody A (biotinylated, loaded first): DL301-SG1; then 20 nM human DLL3, then 80 nM Antibody B
Reported values of competition ratio (Antibody B to Antibody A) for individual entries
Property Name: competition ratio (Antibody B to Antibody A)

Binder: DLL3-6-SG1 (antibody, human IgG1, kappa, V domains shown, Variable regions of a previously reported anti-DLL3 antibody on SG1/SK1; Used as a second antibody only) VH: QVQLQESGPGLVKPSETLSLTCTVSGASISSFYWSWIRQPPGKGLEWIGYIYYSGTTNYNPSLKSRVTISVDTSKNQFSLKLSSVTAADTAVYYCARIAVAGFFFDYWGQGTLVTVSS VL: EIVLTQSPGTLSLSPGERATLSCRASQSVNKNYLAWYQQKPGQAPRLLIYGASSRATGIPDRFSGSGSGTDFTLTISRLEPEDFAVYYCQQYDRSPLTFGGGTKVEIKR
Meas Value: 1.2
//
Binder: D30841AE05-SG1 (antibody, human IgG1, kappa, V domains shown, Humanized variant of DLA0841 with SG1 heavy and SK1 light constant regions; Labelled with NHS-PEG4-Biotin when used as the first (immobilized) antibody in the Octet assay) VH: QVQLKESGPALVKPTQTLTLTCTFSGFSLSSSYDMGWVRQAPGQGLEWMGTIYTGDYSTDYASWAKGRVTITADESTSTAYMELSSLRSEDTAVYYCARNTGYGYFGLWGQGTLVTVSS VL: DIQLTQSPSFLSASVGDRVTITCQSTESVYGSDWLSWYQQKPGQPPKLLIYQASNLEIGVPSRFSGSGSGTDFTLTINSLEAEDAATYYCQGYYSGYIYAFGGGTKVEIKR
Meas Value: 0.9
//
Binder: DLL3-14-SG1 (antibody, human IgG1, kappa, V domains shown, Variable regions of a previously reported anti-DLL3 antibody on SG1/SK1; Used as a second antibody only) VH: QVQLVQSGAEVKKPGASVKVSCKASGYTFTNYYMHWVRQAPGLGLEWMGIINPSDGSTSYAQKFQGRVTMTRDTSTNTVYMDLSSLRSEDTAVYYCARGGNSAFYSYYDMDVWGQGTTVTVSS VL: DVVMTQTPLSLPVTLGQPASISCRSSQSLVYRDGNTYLSWFQQRPGQSPRRLIYKVSNWQSGVPDRFSGGGSGTDFTLKISRVEAEDVGVYYCMQGTHWPPTFGQGTKVEIKR
Meas Value: 1.2
//
Binder: DL306-SG1 (antibody, human IgG1, kappa, V domains shown, Variable regions of a previously reported anti-DLL3 antibody on SG1/SK1; Also used biotin-labelled as a first antibody) VH: EVQLQQSGPELVKPGASVKMSCRASGYTFTDYYMKWVKQSHGKSLEWIGDINPNNGDTFYNQKFKGKATLTIDKSSSTAYMQLNSLTSDDSAVYYCARDGNYAYFDYWGQGTTLTVSS VL: DIVLTQSPASLAVSLGQRATISCRASKSVSTSGYSYMHWYQQKPGQPPKLLIFLASNLESGVPARFSGSGSGTDFTLNIHPVEEEDAATYYCQHSRHLPWTFGGGTKLEIKR
Meas Value: 1.1
//
Binder: DLL3-4-SG1 (antibody, human IgG1, kappa, V domains shown, Variable regions of a previously reported anti-DLL3 antibody on SG1/SK1; Used as a second antibody only) VH: QVQLQESGPGLVKPSETLSLTCTVSGGSISSYYWSWIRQPPGKGLEWIGYVYYSGTTNYNPSLKSRVTISVDTSKNQFSLKLSSVTAADTAVYYCASIAVTGFYFDYWGQGTLVTVSS VL: EIVLTQSPGTLSLSPGERVTLSCRASQRVNNNYLAWYQQRPGQAPRLLIYGASSRATGIPDRFSGSGSGTDFTLTISRLEPEDFAVYYCQQYDRSPLTFGGGTKLEIKR
Meas Value: 1.2
